- Assay explanation: yeast display, Sf9 membrane polyspecificity reagent, FACS + sequencing; frameworks hold sequencing errors
Metric name: polyreactivity (PSR sort gate)

Chain: QVQLVESGGGLVQPGGSLRLSCAASGFTFIRNVMGWYRQAPGKERELVARITYSSGSTYYADSVKGRFTISRDNAKNTVYLQMNSLKPEDTAVYYCAVRLYSYLYNPFNYWGQGTQVTVSS
Metric name: polyreactivity (PSR sort gate)
Result: high polyreactivity

Chain: QVQLVESGGGLVQAGGSLRLSCAASGSIFYIYAMGWYRQAPGKETELVASISRSGGSTYYADSVKGRFTISRDNAKNTVYLQMNSLKPEDTAVYYCAAVITFYRYPPGETYYYWGQGTQVTVSS
Metric name: polyreactivity (PSR sort gate)
Result: high polyreactivity
